# system-under-test: Calcium/calmodulin-dependent protein kinase type II subunit alpha (Homo sapiens);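 note: reported value is a mean percent inhibition of CAMK2A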
# particulars: at 1 µM
Provide the reported inhibition of each item.

If you can, please state the reported inhibition value of Fc1ccc(-c2nc3n(c2-c2ccncc2)CCS3)cc1 . 3.82%

If you can, please state the reported inhibition value of c1ccc(Oc2ccc(Nc3ncc(-c4ccccc4)o3)cc2)cc1 . 0.18%

If you can, please state the reported inhibition value of O=C1NC(=O)C(c2cccc(Cl)c2)=C1Nc1ccc(Cl)c(C(=O)O)c1 . 2.06%

If you can, please state the reported inhibition value of CCc1cccc(CC)c1/C=C/c1cncc(C(=O)NC)c1 . 3.51%

If you can, please state the reported inhibition value of CNC(=O)c1cncc(/C=C/c2c(C)cccc2C)c1 . 3.13%

If you can, please state the reported inhibition value of COc1ccc(-c2ccc3c(NC(=O)C4CC4)n[nH]c3n2)cc1 . 0.75%

If you can, please state the reported inhibition value of Fc1ccc(-c2c(-c3ccncc3)nc3n2CCS3)cc1 . 0.88%

If you can, please state the reported inhibition value of CS(=O)(=O)CCNCc1cc(-c2cc3c(Nc4ccc(OCc5cccc(F)c5)c(Cl)c4)ncnc3s2)cs1 . 3.15%

If you can, please state the reported inhibition value of COc1cc(Nc2ncc(-c3ccccc3)o2)cc(OC)c1OC . -0.38%

If you can, please state the reported inhibition value of NS(=O)(=O)c1ccc(N/N=C2\C(=O)Nc3ccc(C(=O)NCCCn4ccnc4)cc32)cc1 . 4.11%

If you can, please state the reported inhibition value of O=C1Nc2ccccc2/C1=C/Nc1ccc(-n2cncn2)cc1 . 4.05%

If you can, please state the reported inhibition value of NCc1ccc(-n2c(-c3nonc3N)nc3cnccc32)cc1 . 7.05%

If you can, please state the reported inhibition value of COc1ccc2cc(-c3c(-c4ccncc4)nc(-c4ccc([S+](C)[O-])cc4C)n3C)ccc2c1 (stereo unspecified) . -1.04%

If you can, please state the reported inhibition value of C[C@@H](Oc1cc(-n2cnc3ccc(OCC4CCN(C)CC4)cc32)sc1C(N)=O)c1ccccc1Cl . 12.8%

If you can, please state the reported inhibition value of Nc1nccc(-c2c(-c3ccc(F)cc3)ncn2C2CCC(O)CC2)n1 (stereo unspecified) . -3.25%

If you can, please state the reported inhibition value of COc1cc(C)c(N(C)C(=O)CN(C)C)cc1Nc1nc(Nc2cccc(F)c2C(N)=O)c2cc[nH]c2n1 . 4.38%

If you can, please state the reported inhibition value of C/C(Nc1ccc(S(N)(=O)=O)cc1)=C1/C(=O)Nc2ccccc21 . -2.07%

If you can, please state the reported inhibition value of Fc1ccc(-c2ncn(C3CCNCC3)c2-c2ccnc(Oc3ccc(F)c(F)c3)n2)cc1 . 0.43%

If you can, please state the reported inhibition value of CN(C)CCOc1ccc(-c2cc(-c3ccc4c(c3)CCC4=NO)c(-c3ccncc3)o2)cc1 . 0.22%

If you can, please state the reported inhibition value of NC(=O)Cc1ccccc1Oc1nccc(-c2c(-c3ccc(F)cc3)ncn2C2CCNCC2)n1 . 2.07%

If you can, please state the reported inhibition value of O=C(Nc1n[nH]c2nc(-c3ccco3)ccc12)C1CC1 . 1.36%

---

Provide the reported inhibition of each item.
# Tested on: Serine/threonine-protein kinase B-raf (Homo sapiens), P15056 [V600E];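 note: enzyme inhibition of the BRAF V599E mutant kinase, given as mean percent inhibition, screened within the GSK PKIS kinase inhibitor set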
# Sequence (P15056 whole entry V600E): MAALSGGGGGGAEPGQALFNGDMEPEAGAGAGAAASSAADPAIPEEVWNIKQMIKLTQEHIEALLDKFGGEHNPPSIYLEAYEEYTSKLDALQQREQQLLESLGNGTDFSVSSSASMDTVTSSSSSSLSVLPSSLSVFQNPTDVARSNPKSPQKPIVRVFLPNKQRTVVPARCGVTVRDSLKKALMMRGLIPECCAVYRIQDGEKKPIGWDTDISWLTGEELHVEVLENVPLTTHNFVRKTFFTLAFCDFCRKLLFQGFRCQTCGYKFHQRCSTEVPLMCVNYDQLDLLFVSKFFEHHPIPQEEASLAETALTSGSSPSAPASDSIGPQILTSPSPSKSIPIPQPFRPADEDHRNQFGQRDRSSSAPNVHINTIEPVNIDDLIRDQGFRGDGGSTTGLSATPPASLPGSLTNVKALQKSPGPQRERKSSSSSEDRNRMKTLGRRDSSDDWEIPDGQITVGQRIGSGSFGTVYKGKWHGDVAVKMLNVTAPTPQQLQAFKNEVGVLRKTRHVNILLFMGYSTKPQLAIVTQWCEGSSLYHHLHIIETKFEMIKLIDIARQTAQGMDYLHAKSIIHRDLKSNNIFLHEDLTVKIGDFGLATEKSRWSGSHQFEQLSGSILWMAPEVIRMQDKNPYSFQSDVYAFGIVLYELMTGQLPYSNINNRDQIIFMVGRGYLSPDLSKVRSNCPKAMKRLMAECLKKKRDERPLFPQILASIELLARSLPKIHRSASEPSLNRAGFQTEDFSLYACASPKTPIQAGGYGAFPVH
# particulars: at 1 µM
# Description: GSK_PKIS: BRAF (V599E mutant) mean inhibition at 1 uM [Nanosyn]
Write the number in % without appending the unit.

If you can, please state the reported inhibition value of C[C@@H](Oc1cc(-n2cnc3ccc(OCC4CCN(C)CC4)cc32)sc1C(N)=O)c1ccccc1Cl . 5.47

If you can, please state the reported inhibition value of CS(=O)(=O)CCNCc1cc(-c2cc3c(Nc4ccc(OCc5cccc(F)c5)c(Cl)c4)ncnc3s2)cs1 . 5.09

If you can, please state the reported inhibition value of Fc1ccc(-c2nc3n(c2-c2ccncc2)CCS3)cc1 . 5.73

If you can, please state the reported inhibition value of FC(F)(F)c1cccc(Nc2nccc(-c3cnn4nc(-c5ccccc5)ccc34)n2)c1 . 4.02

If you can, please state the reported inhibition value of COc1ccc2cc(-c3c(-c4ccncc4)nc(-c4ccc([S+](C)[O-])cc4C)n3C)ccc2c1 (stereo not given) . -0.41

If you can, please state the reported inhibition value of NC(=O)c1cc(-c2ccncc2)cc(-c2ccccc2)c1N . 8.65

If you can, please state the reported inhibition value of COc1ccc2cc(-c3c(-c4ccncc4)nc(-c4ccc(S(C)(=O)=O)cc4C)n3C)ccc2c1 . 5.85

If you can, please state the reported inhibition value of Nc1nccc(-c2c(-c3ccc(F)cc3)ncn2C2CCC(O)CC2)n1 (stereo not given) . -2.66

If you can, please state the reported inhibition value of CN(c1ccc(NC(=O)Nc2c(Cl)cccc2Cl)cc1)c1ccnc(Nc2cccc(CS(C)(=O)=O)c2)n1 . 5.8

If you can, please state the reported inhibition value of CCc1ccc(Oc2nccc(-c3c(-c4ccc(F)cc4)ncn3C3CCNCC3)n2)cc1 . 8.72

If you can, please state the reported inhibition value of Fc1ccc(-c2c(-c3ccncc3)nc3n2CCS3)cc1 . 4.28

If you can, please state the reported inhibition value of CN1CCN(CCCNc2nc3ccc(Oc4ccc(NC(=O)Nc5cc(C(F)(F)F)ccc5F)cc4)cc3[nH]2)CC1 . 16.6

If you can, please state the reported inhibition value of NC(=O)c1ccc(Oc2nccc(-c3c(-c4ccc(F)cc4)ncn3C3CCNCC3)n2)cc1 . 5.64

If you can, please state the reported inhibition value of O=C1Nc2ccccc2/C1=C/Nc1ccc(-n2cncn2)cc1 . 6.86

If you can, please state the reported inhibition value of NCc1ccc(-n2c(-c3nonc3N)nc3cnccc32)cc1 . 8.53

If you can, please state the reported inhibition value of NC(=O)c1cc(-c2ccc(F)cc2)cc(-c2ccncc2)c1N . 7.36

If you can, please state the reported inhibition value of Fc1ccc(-c2ncn(C3CCNCC3)c2-c2ccnc(Oc3ccc4c(c3)OCO4)n2)cc1 . 8.22

If you can, please state the reported inhibition value of O=C1NC(=O)C(c2cccc(Cl)c2)=C1Nc1ccc(Cl)c(C(=O)O)c1 . 4.77

If you can, please state the reported inhibition value of O=C(Nc1n[nH]c2cc(-c3cc(F)ccc3F)ccc12)C1CC1 . 6.3

If you can, please state the reported inhibition value of COc1cc(Nc2ncc3c(C)nc(-c4cccc(Oc5ccccc5)c4)n3n2)cc(OC)c1OC . 11.4
